Source: patent US4960678A

# experiment_description: Durability test of poly(allyl diglycol carbonate) lens impregnated with compound in silicone oil, Example 10
# Type: physicochemical
# settings: impregnated from silicone oil
readout_type: λmax (nm)

| compound | readout_type | observed_result |
| --- | --- | --- |
| CCC(C(=O)OCCc1ccc2ccccc2c1)N1C(=O)C2=C(C)c3ccsc3C3(C4CC5CC(C4)CC3C5)C2C1=O (centres unmarked) [(5)] | λmax | 520 |
| COC(=O)CN1C(=O)C2=C(C)c3ccsc3C3(C4CC5CC(C4)CC3C5)C2C1=O (centres unmarked) [(1)] | λmax | 540 |
| CC(=O)CN1C(=O)C2=C(c3ccccc3)c3cc(-c4ccccc4)sc3C3(C4CC5CC(C4)CC3C5)C2C1=O (centres unmarked) [(10)] | λmax | 610 |
| CC1=C2C(=O)N(C[N+](=O)[O-])C(=O)C2C2(c3sc(C)cc31)C1CC3CC(C1)CC2C3 (centres unmarked) [(8)] | λmax | 562 |
| CC1=C2C(=O)N(CC#N)C(=O)C2C2(c3occc31)C1CC3CC(C1)CC2C3 (centres unmarked) [(28)] | λmax | 540 |
| CCCCC12CC3CC(C1)C1(c4c(n(C)c5ccccc45)C(C)=C4C(=O)N(CC(=O)OCCC#N)C(=O)C41)C(Cl)(C3)C2 (centres unmarked) [(29)] | λmax | 583 |
| COC12CC3CC(C1)C1(c4oc5ccccc5c4C(C)=C4C(=O)N(CC(=O)OC(C)(C)CCC#N)C(=O)C41)C(C3)C2 (centres unmarked) [(14)] | λmax | 500 |
| CC1=C2C(=O)N(CC#N)C(=O)C2C2(c3sccc31)C1CC3CC(C1)CC2C3 (centres unmarked) [(2)] | λmax | 562 |

----------
# experiment_description: Xenon long-life fadeometer test of photochromic poly(methyl methacrylate) cast film (initial coloration density, T1/2, λmax), Example 9;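 further: 0.5 part by weight compound dispersed with PMMA in 100 parts benzene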
# Type: physicochemical
# settings: poly(methyl methacrylate) cast film 0.1 mm; initial coloration density (absorbance); xenon fadeometer
Initial color density of 0.5 or higher: YES. Under 0.5: NO.

| compound | class_assignment |
| --- | --- |
| CC1=C2C(=O)N(C[N+](=O)[O-])C(=O)C2C2(c3sc(C)cc31)C1CC3CC(C1)CC2C3 (stereo not shown) | YES |
| CCC1=C2C(=O)N(CC(=O)CCC(=O)CCl)C(=O)C2C2(c3c1sc1ccccc31)C1(F)C(F)(F)C3(F)C(F)(F)C(F)(C1(F)F)C(F)(F)C2(F)C3(F)F (stereo not shown) | YES |
| CC1=C2C(=O)OC(=O)C2C2(CC3CCC2(C)C3(C)C)c2sc(C)cc21 (stereo not shown) | YES |
| COc1ccc2c3c(sc2c1)C1(C2CC4CC(C2)CC1C4)C1C(=O)N(CCl)C(=O)C1=C3C (stereo not shown) | YES |
| CCN1C(=O)C2=C(C)c3cc(OC)c(OC)c(OC)c3C3(CC4CCC3C4)C2C1=O (stereo not shown) | NO |
| COCCOCN1C(=O)C2=C(C)c3c(oc4ccccc34)C3(C4CC5CC(F)(C4)CC3(F)C5)C2C1=O (stereo not shown) | YES |
